assay-system: HIV-1 protease (Human immunodeficiency virus type 1 group M subtype B)
experimental-details: biochemical
applied-conditions: read-out: HIV-1 FITC KI
pKi: −log10 of the molar value.

molecule: C=CS(=O)(=O)Nc1cccc(C(c2c(O)c3c(oc2=O)CCCCCC3)C2CC2)c1 (centres unmarked) [Example 316]
pKi: 7.74

molecule: CCCCC1CCCCCc2c1oc(=O)c(C(c1ccccc1)C1CC1)c2O (centres unmarked) [Example 129]
pKi: 7.51

molecule: Nc1cccc(C(c2c(O)c3c(oc2=O)CCCCCC3)C2CC2)c1 (centres unmarked) [Example 164]
pKi: 7.11

molecule: C=CCCC1CCCCc2c1oc(=O)c(C(c1ccccc1)C1CC1)c2O (centres unmarked) [Example 135]
pKi: 7.52

molecule: O=C(NCc1ccc(S(=O)(=O)Nc2cccc(C(c3c(O)c4c(oc3=O)CCCCCC4)C3CC3)c2)s1)c1ccccc1 (centres unmarked) [Example 296]
pKi: 7.62

molecule: N#Cc1ccc(S(=O)(=O)Nc2cccc([C@H](c3c(O)c4c(oc3=O)CCCCCC4)C3CC3)c2)cc1 [Example 259]
pKi: 9.15

molecule: CC(CO)C1CCCCCc2c1oc(=O)c(C(c1ccccc1)C1CC1)c2O (centres unmarked) [Example 161]
pKi: 7.49

molecule: CC(C)CCC1CCCCCc2c1oc(=O)c(C(c1ccccc1)C1CC1)c2O (centres unmarked) [Example 132]
pKi: 7.30

molecule: O=c1oc2c(c(O)c1C(c1ccccc1)C1CC1)CCCCC2 (centres unmarked) [Example 112]
pKi: 7.02

molecule: O=c1oc2c(c(O)c1C(c1ccccc1)C1CC1)CCCCCC2CC1CO1 (centres unmarked) [Example 163]
pKi: 7.47

molecule: O=c1oc2c(c(O)c1C(c1cccc(NS(=O)(=O)CCc3ccccc3)c1)C1CC1)CCCCCC2 (centres unmarked) [Example 346]
pKi: 8.41

molecule: O=c1oc2c(c(O)c1[C@@H](c1cccc(NS(=O)(=O)c3ccccc3)c1)C1CC1)CCCCCC2 [Example 401]
pKi: 8.64

molecule: O=c1oc2c(c(O)c1C(c1cccc(NS(=O)(=O)c3cccc(NO)c3)c1)C1CC1)CCCCCC2 (centres unmarked) [Example 353 (Second Title Compound)]
pKi: 8.62

molecule: O=c1oc2c(c(O)c1C(c1cccc(NS(=O)(=O)c3cccc(NS(=O)(=O)CCCCl)c3)c1)C1CC1)CCCCCC2 (centres unmarked) [Example 313]
pKi: 8.93

molecule: O=c1oc2c(c(O)c1C(c1ccccc1)C1CC1)CCCCCCCC2 (centres unmarked) [Example 116]
pKi: 6.25

molecule: CCC(c1ccccc1)c1c(O)c2c(oc1=O)CCC2 (centres unmarked) [Example 111]
pKi: 6.15

molecule: O=C1c2ccccc2C(=O)N1CCS(=O)(=O)Nc1cccc(C(c2c(O)c3c(oc2=O)CCCCCC3)C2CC2)c1 (centres unmarked) [Example 327]
pKi: 7.87

* * *

assay-system: HIV-1 protease (Human immunodeficiency virus type 1 group M subtype B)
experimental-details: biochemical
applied-conditions: read-out: HIV-1 Protease % Inhib, dose 200.000 uM
Each entry below lists one item and its recorded inhibition at 200 µM value.

compound: CC(C)C(c1ccc(Br)cc1)c1c(O)c2ccccc2oc1=O (centres unmarked)
inhibition at 200 µM (%): 87

compound: CC(c1ccccc1)c1c(O)c2ccccc2oc1=O (stereo not drawn) [Example 6, 4-Hydroxy-3-(α-methylbenzyl)-coumarin]
inhibition at 200 µM (%): 75.2

compound: O=c1oc2ccccc2c(O)c1CCc1ccccc1 [Example 1, 4-Hydroxy-3-phenethylcoumarin]
inhibition at 200 µM (%): 92.8

compound: O=c1oc2ccccc2c(O)c1CCCc1ccccc1 [Example 2, 4-Hydroxy-3-(3-phenylpropyl)coumarin]
inhibition at 200 µM (%): 97.5

compound: CCCCC(c1ccccc1)c1c(O)c2ccccc2oc1=O (centres unmarked) [Example 11, 4-Hydroxy-3-(1-phenylpentyl)-coumarin]
inhibition at 200 µM (%): 107

* * *

assay-system: HIV-1 protease (Human immunodeficiency virus type 1 group M subtype B, UniProt P04585)
experimental-details: biochemical
applied-conditions: read-out: HIV-1 Protease % Inhib, dose 0.370 uM
result-type: inhibition at 0.37 µM (%)

compound: O=c1oc2c(c(O)c1C1(c3ccccc3)CCC1)CCCCCC2
result-type: inhibition at 0.37 µM
endpoint-result: 44.8
//
compound: O=c1oc2c(c(O)c1C(c1cccc(NS(=O)(=O)c3cccc4nonc34)c1)C1CC1)CCCCCC2 (stereo not shown)
result-type: inhibition at 0.37 µM
endpoint-result: 115
//
compound: O=C1c2ccccc2C(=O)N1CCS(=O)(=O)Nc1cccc(C(c2c(O)c3c(oc2=O)CCCCCC3)C2CC2)c1 (stereo not shown)
result-type: inhibition at 0.37 µM
endpoint-result: 68.2
//
compound: CCCCC(c1cccc(NS(=O)(=O)c2ccc(F)cc2)c1)c1c(O)c2c(oc1=O)CCCCCC2 (stereo not shown)
result-type: inhibition at 0.37 µM
endpoint-result: 95.4

* * *

assay-system: HIV-1 protease (Human immunodeficiency virus type 1 group M subtype B)
experimental-details: biochemical
applied-conditions: read-out: HIV-1 Protease % Inhib, dose 1.100 uM

compound: C[C@H](NC(=O)OC(C)(C)C)C(=O)Nc1cccc(C(c2c(O)c3c(oc2=O)CCCCCC3)C2CC2)c1 (stereo partly shown) [Example 198]
assay-system: HIV-1 protease (Human immunodeficiency virus type 1 group M subtype B)
endpoint-unit: %
inhibition at 1.1 µM: 107

compound: CC1(C)C2CCC1(CS(=O)(=O)Nc1cccc(C(c3c(O)c4c(oc3=O)CCCCCC4)C3CC3)c1)C(=O)C2 (stereo not shown) [Example 333]
assay-system: HIV-1 protease (Human immunodeficiency virus type 1 group M subtype B)
endpoint-unit: %
inhibition at 1.1 µM: 62.2

compound: COCCC1CCCCCc2c1oc(=O)c(C(c1ccccc1)C1CC1)c2O (stereo not shown) [Example 178]
assay-system: HIV-1 protease (Human immunodeficiency virus type 1 group M subtype B)
endpoint-unit: %
inhibition at 1.1 µM: 86.4

compound: COc1ccc(S(=O)(=O)Nc2cccc(C(c3c(O)c4c(oc3=O)CCCCCC4)C3CC3)c2)cc1OC (stereo not shown) [Example 335]
assay-system: HIV-1 protease (Human immunodeficiency virus type 1 group M subtype B)
endpoint-unit: %
inhibition at 1.1 µM: 90.3

* * *

assay-system: HIV-1 protease (Human immunodeficiency virus type 1 group M subtype B, UniProt P04585)
experimental-details: biochemical
applied-conditions: read-out: HIV-1 Protease % Inhib, dose 12.500 uM
Each entry below lists one item and its recorded inhibition at 12.5 µM value.

compound: CCCCC(c1ccccc1)c1c(O)c2ccccc2oc1=O (stereo not shown) [Example 11, 4-Hydroxy-3-(1-phenylpentyl)-coumarin]
inhibition at 12.5 µM, %: 82
--
compound: CC(C)C(c1ccc(Br)cc1)c1c(O)c2ccccc2oc1=O (stereo not shown) [Example 12]
inhibition at 12.5 µM, %: 53.8
--
compound: CCC(c1ccccc1)c1c(O)c2ccc(OC)cc2oc1=O (stereo not shown) [Example 88]
inhibition at 12.5 µM, %: 89.2
--
compound: CCCC(c1ccccc1)c1c(O)c2ccccc2oc1=O (stereo not shown) [Example 10, 4-Hydroxy-3-(1-phenylbutyl)-coumarin]
inhibition at 12.5 µM, %: 91.5

* * *

Each entry below lists one item and its recorded inhibition at 10 µM value.
assay-system: HIV-1 protease (Human immunodeficiency virus type 1 group M subtype B)
experimental-details: biochemical
applied-conditions: read-out: HIV-1 Protease % Inhib, dose 10.000 uM

molecule: CCC(c1ccccc1)c1c(O)c2ccc3ccccc3c2oc1=O (stereo not drawn) [Example 99]
readout-qualifier: <
inhibition at 10 µM (%): 10

molecule: C=CCOc1cccc(C(CC)c2c(O)c3ccccc3oc2=O)c1 (stereo not drawn) [Example 67]
readout-qualifier: =
inhibition at 10 µM (%): 11.7

molecule: CCC(c1cccc(NS(=O)(=O)CC)c1)c1c(O)c2ccccc2oc1=O (stereo not drawn) [Example 138]
readout-qualifier: =
inhibition at 10 µM (%): 64.5

molecule: COCCC1CCCCCc2c1oc(=O)c(C(c1ccccc1)C1CC1)c2O (stereo not drawn) [Example 178]
readout-qualifier: =
inhibition at 10 µM (%): 105

molecule: Cc1ccccc1S(=O)(=O)Nc1cccc(C(c2c(O)c3c(oc2=O)CCCCCC3)C2CC2)c1 (stereo not drawn) [Example 330]
readout-qualifier: =
inhibition at 10 µM (%): 115

molecule: O=c1oc2ccccc2c(O)c1C1CCCCc2ccccc21 (stereo not drawn) [Example 75]
readout-qualifier: =
inhibition at 10 µM (%): 72.7

molecule: CCCCC(c1cccc(NS(=O)(=O)c2ccc(F)cc2)c1)c1c(O)c2c(oc1=O)CCCCCC2 (stereo not drawn) [Example 422]
readout-qualifier: =
inhibition at 10 µM (%): 97.6

molecule: CCS(=O)(=O)Nc1cccc(C(c2c(O)c3c(oc2=O)CCCCC3)C2CC2)c1 (stereo not drawn) [Example 365]
readout-qualifier: =
inhibition at 10 µM (%): 94.5

molecule: O=c1oc2c(c(O)c1C(c1cccc(S(=O)(=O)Nc3ccccc3)c1)C1CC1)CCCCCC2 (stereo not drawn) [Example 400]
readout-qualifier: =
inhibition at 10 µM (%): 114
